- Tested on: Plasmodium berghei
- test name: Luciferase/luciferin-expressing antifolate-resistant parasites were used to infect a culture of HepG2 cells that were pre-incubated with compounds. Infected hepatocytes emit light due to the luciferase reaction. Assay results are presented as the percent inhibition of light emission compared to control. […]
- Type: functional
- measurement context: sporozoite, HEPG2TOX_HILL_SLOPE 2.04, HEPG2TOX_R_SQUARED 0.975, PBLUC_HILL_SLOPE 1.99, PBLUC_R_SQUARED 0.616, read-out: LUCIFERASE INFECTION ASSAY - IC50
pIC50: −log10 of the molar value.
metric name: pIC50

compound structure string: CC(C)N1/C(=C\c2ccccc2O)C(=O)c2ccccc2S1(=O)=O
target of assay: Plasmodium berghei
val: 5.49
